assayed target: human H3 receptors (Homo sapiens, UniProt Q9Y5N1)
Sequence (Q9Y5N1 whole entry): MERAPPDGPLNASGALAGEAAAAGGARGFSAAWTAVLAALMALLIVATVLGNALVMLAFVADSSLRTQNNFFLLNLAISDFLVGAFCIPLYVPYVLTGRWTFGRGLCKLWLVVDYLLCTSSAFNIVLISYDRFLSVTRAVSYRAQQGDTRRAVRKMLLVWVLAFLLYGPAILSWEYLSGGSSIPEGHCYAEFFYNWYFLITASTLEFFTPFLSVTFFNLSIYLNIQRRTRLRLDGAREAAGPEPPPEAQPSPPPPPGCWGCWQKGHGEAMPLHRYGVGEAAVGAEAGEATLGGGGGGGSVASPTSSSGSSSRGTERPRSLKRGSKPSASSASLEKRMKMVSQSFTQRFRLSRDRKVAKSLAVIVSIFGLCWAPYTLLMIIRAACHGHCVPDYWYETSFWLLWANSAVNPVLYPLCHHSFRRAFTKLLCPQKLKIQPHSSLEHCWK
procedure details: cAMP quantification assay for human H3 receptor testing
condition details: CHO-K1 cells expressing human H3 receptors; inhibition of agonist-induced decrease of cAMP; 100 nM histamine, 10 μM forskolin; read-out: Potency range (IC50 values)
pIC50: −log10 of the molar value.
property name: pIC50

O=C(NCC1CC1)c1ccc(OC2CN(C(=O)N3CCCN(C4CCC4)CC3)C2)cn1 [Example 35] = > 7.00

I would be grateful if you could share the reported pIC50 for O=C(N1CCCN(C2CCC2)CC1)N1CC(Oc2ccncc2F)C1 [Example 49] .
> 7.00

Same lookup for CC(C)(O)c1ccc(OC2CN(C(=O)N3CCCN(C4CCC4)CC3)C2)cn1 [Example 118] , please.
> 7.00

Again, but for Cc1nccc(OC2CN(C(=O)N3CCCN(C4CCC4)CC3)C2)n1 [Example 65]
> 7.00

Record: Cc1nccc(OC2CN(C(=O)N3CCCN(C4CCC4)CC3)C2)c1F [Example 151]
> 7.00

Same for O=C(N1CCCN(C2CCC2)CC1)N1CC(Oc2ccccc2)C1 [Example 15]
> 7.00

Another: O=C(C1CN(C(=O)N2CCCN(C3CCC3)CC2)C1)N1CCOCC1 [Example 125]
> 7.00

What would you report for O=C(N1CCCN(C2CCC2)CC1)N1CC(Oc2ccn3ccnc3c2)C1 [Example 71] ?
> 7.00

// query: Cc1cc(OC2CN(C(=O)N3CCCN(C4CCC4)CC3)C2)cc(C)n1 [Example 69]
> 7.00
